Tested on: P. acnes NCTC 737
ASSAY_INFO: Disc diffusion assay (DDA)
Assay type: cell-based, Propionibacterium acnes
EXPERIMENTAL_CONDITIONS: Table 7, zone diameter, 200 μg per disc
# DDA >= 20 mm gives t, anything below gives f

Worked cases, answers included:
{"MOLECULE": "O=C1C=CC(=O)C=C1", "ASSIGNED_CATEGORY": "t"}
{"MOLECULE": "Oc1ccc(O)cc1 [p-hydroquinone]", "ASSIGNED_CATEGORY": "f"}
{"MOLECULE": "Cc1c(O)ccc(O)c1C [2,3-dimethyl-p-hydroquinone]", "ASSIGNED_CATEGORY": "f"}
{"MOLECULE": "O=C(OOC(=O)c1ccccc1)c1ccccc1 [benzoyl peroxide]", "ASSIGNED_CATEGORY": "t"}
{"MOLECULE": "CC(C)(C)c1cc(O)ccc1O [TBHQ, t-butyl hydroquinone]", "ASSIGNED_CATEGORY": "f"}
{"MOLECULE": "CC1=CC(=O)C(C(C)C)=CC1=O", "ASSIGNED_CATEGORY": "t"}

Moving on to another molecule below.
Quick check: does CCc1cc(O)ccc1O [2-ethyl-p-hydroquinone] have DDA greater than or equal to 20 mm?
f

---

Documented SDDA area increase across a set of compounds
Test system: P. acnes NCTC 737
ASSAY_INFO: Synergy disc diffusion assay (SDDA)
Type: cell-based, Propionibacterium acnes
EXPERIMENTAL_CONDITIONS: peroxide + TBHQ, over larger single-compound zone
Your answer is read as %, so omit the unit and give the number.

{"COMPOUND": "CC(C)(C)OO [t-butyl hydroperoxide]", "REPORTED": 188.77}
{"COMPOUND": "[Mg+2].[O-][O-] [magnesium peroxide]", "REPORTED": 523.33}

# input compound: [Na+].[Na+].[O-][O-] [sodium peroxide] ; wanted: its SDDA area increase
128.21

# input compound: [Ca+2].[O-][O-] [calcium peroxide] ; wanted: its SDDA area increase
544.48
